Tested System: glucocerebrosidase (Gcase) (Homo sapiens)
Construct: micellar solution containing 10 nM GCase and 100 nM saposin C
Sequence (P04062 40-536): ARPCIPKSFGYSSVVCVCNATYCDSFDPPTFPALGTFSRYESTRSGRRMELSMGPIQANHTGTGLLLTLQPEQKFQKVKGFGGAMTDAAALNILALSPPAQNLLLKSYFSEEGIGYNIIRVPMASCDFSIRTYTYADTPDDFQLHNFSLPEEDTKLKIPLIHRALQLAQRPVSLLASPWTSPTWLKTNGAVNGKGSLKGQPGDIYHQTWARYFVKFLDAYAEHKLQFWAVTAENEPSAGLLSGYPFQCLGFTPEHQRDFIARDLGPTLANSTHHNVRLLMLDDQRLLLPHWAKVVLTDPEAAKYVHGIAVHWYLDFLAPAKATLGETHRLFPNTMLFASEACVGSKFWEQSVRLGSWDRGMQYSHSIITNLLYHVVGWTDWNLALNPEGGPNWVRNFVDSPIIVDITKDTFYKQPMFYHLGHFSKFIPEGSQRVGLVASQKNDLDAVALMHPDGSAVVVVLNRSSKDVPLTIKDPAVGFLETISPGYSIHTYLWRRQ
Method Description: Glucocerebrosidase (Gcase) activation assay, 4-methylumbelliferyl-beta-D-glucopyranoside substrate, fluorescence readout
Format: biochemical
Assay Conditions: test compound at 1.0 μM; read-out: Percent Gcase Activation, 1 μM Test Compound
Readout Name: activation at 1 µM

I have this compound here, Cc1cc(C)n2ccc(C(=O)NC3CCOc4ccccc43)c2n1 (stereo not drawn) [III-211] , and I need its recorded activation at 1 µM.
> 60%

I have this compound here, COC1CC(NC(=O)c2ccn3c(C)cc(C)nc23)c2ccccc21 (stereo not drawn) [III-285] , and I need its recorded activation at 1 µM.
> 60%

I have this compound here, Cc1cc(C)n2ccc(C(=O)NC3CCCCC34CCCCO4)c2n1 (stereo not drawn) [III-152] , and I need its recorded activation at 1 µM.
> 60%

More entries:
I have this compound here, CCCCO[C@H]1CC[C@H](NC(=O)c2ccn3c(C(C)C)cc(COC)nc23)CC1 [III-37] , and I need its recorded activation at 1 µM.
> 60%

I have this compound here, CCCCO[C@H]1CC[C@H](NC(=O)c2ccn3c(C(F)F)cc(COC)nc23)CC1 [III-35] , and I need its recorded activation at 1 µM.
> 60%

I have this compound here, Cc1cc(C)n2ccc(C(=O)Nc3ccc(-n4ccnc4)cc3)c2n1 [III-86] , and I need its recorded activation at 1 µM.
< 30%

I have this compound here, C#Cc1ccc(NC(=O)c2ccn3c(C)cc(C)nc23)cn1 [III-5] , and I need its recorded activation at 1 µM.
> 60%

I have this compound here, Cc1ccnc2c(C(=O)N[C@H]3CCCc4ccccc43)ccn12 [III-255] , and I need its recorded activation at 1 µM.
> 60%

I have this compound here, Cc1cc(C)n2ccc(C(=O)NC3CCN(c4ccsc4)CC3)c2n1 [III-115] , and I need its recorded activation at 1 µM.
30 to 60%

###

Method Description: Compound solubility in water
Assay Conditions: water, Compound Solubility in Water
Please assign a class to every record based on measured solubility, with ranges one = under 0.7 µg/mL, two = from 0.7 µg/mL up to 5 µg/mL, three = 5 µg/mL and over

// below: answered compounds
Returns: class label. Input: `CCCCO[C@H]1CC[C@H](NC(=O)c2ccn3c(C)cc(C(F)F)nc23)CC1`
two

Returns: class label. Input: `Cc1cc(C)n2ccc(C(=O)N[C@H]3CC[C@H](OC(C)C)CC3)c2n1`
three

Returns: class label. Input: `Cc1cc(C)n2ccc(C(=O)N[C@H]3CC[C@@H](OCC(C)(C)C)CC3)c2n1`
two

Returns: class label. Input: Cc1cc(C)n2ccc(C(=O)NC3CCOc4c(F)ccc(F)c43)c2n1 (stereo not shown)
two

Returns: class label. Input: `CCCCCO[C@H]1CC[C@@H](NC(=O)c2ccn3c(C)cc(C)nc23)C1`
three

More entries:
Returns: class label. Input: Cc1cc(C)n2ccc(C(=O)NC3CCCC4(CCCCO4)C3)c2n1 (stereo not shown)
three

Returns: class label. Input: COCCOc1ccc2c(c1)C(NC(=O)c1ccn3c(C)cc(C)nc13)CC2 (stereo not shown)
three

Returns: class label. Input: Cc1cc(C)n2ccc(C(=O)Nc3ccc4c(c3)C(Oc3ccccn3)CC4)c2n1 (stereo not shown)
one

Returns: class label. Input: Cc1cc(C)n2ccc(C(=O)NC3(C)CCOc4ccc(F)c(F)c43)c2n1 (stereo not shown)
one

Returns: class label. Input: Cc1cc(C)n2ccc(C(=O)NC3(C)CCOc4c(F)cccc43)c2n1 (stereo not shown)
two

Returns: class label. Input: `Cc1cc(Br)n2ccc(C(=O)Nc3ccc(-c4cocn4)cc3)c2n1`
one

Returns: class label. Input: `Cc1cc(C)n2ccc(C(=O)Nc3ccc(-c4ncco4)cc3)c2n1`
one

Returns: class label. Input: `Cc1cc(C)n2ccc(C(=O)N[C@H](C)c3ccccc3)c2n1`
two

Returns: class label. Input: `Cc1cc(C)n2ccc(C(=O)Nc3ccc4nc(C)sc4c3)c2n1`
one

Reference source: patent US11351173B2
